Data credit: the NIST ThermoML archive (doi:10.1021/je900482x)

Listing: isobaric coefficient of expansion of selected compounds
experiment: isobaric coefficient of expansion; conditions: 308.15 K; 50000 kPa; Liquid; Microcalorimeter

- COMPOUND: "CCCC[n+]1cccc(C)c1.F[B-](F)(F)F [1-butyl-3-methylpyridinium tetrafluoroborate]"
  isobaric coefficient of expansion: "0.000541 1/K"

The compound CCCCCC[n+]1ccn(C)c1.O=S(=O)([N-]S(=O)(=O)C(F)(F)F)C(F)(F)F showed isobaric coefficient of expansion equal to 0.000577 1/K

The compound CCn1cc[n+](C)c1.O=S(=O)([N-]S(=O)(=O)C(F)(F)F)C(F)(F)F showed isobaric coefficient of expansion equal to 0.000581 1/K

###

assay: isobaric coefficient of expansion; conditions: 318.15 K; 35000 kPa; Liquid; Microcalorimeter
READOUT_LABEL: isobaric coefficient of expansion

Sample answers from the record:
- MOLECULE: "CCn1cc[n+](C)c1.O=S(=O)([N-]S(=O)(=O)C(F)(F)F)C(F)(F)F"
  isobaric coefficient of expansion: "0.000599 1/K"
- MOLECULE: "CCCC[n+]1cccc(C)c1.F[B-](F)(F)F [1-butyl-3-methylpyridinium tetrafluoroborate]"
  isobaric coefficient of expansion: "0.000551 1/K"
- MOLECULE: "CCCCCCn1cc[n+](C)c1.F[B-](F)(F)F [1-hexyl-3-methylimidazolium tetrafluoroborate]"
  isobaric coefficient of expansion: "0.000554 1/K"
- MOLECULE: "CCn1cc[n+](C)c1.F[B-](F)(F)F [1-ethyl-3-methylimidazolium tetrafluoroborate]"
  isobaric coefficient of expansion: "0.00055 1/K"
- MOLECULE: "CCCCCCCC[n+]1ccn(C)c1.F[B-](F)(F)F [1-methyl-3-octylimidazolium tetrafluoroborate]"
  isobaric coefficient of expansion: "0.000554 1/K"

API: the following record is the query input.
The molecule CCCCCC[n+]1ccn(C)c1.O=S(=O)([N-]S(=O)(=O)C(F)(F)F)C(F)(F)F showed isobaric coefficient of expansion equal to 0.000597 1/K

###

assay: isobaric coefficient of expansion; settings: 318.15 K; 15000 kPa; Liquid; Microcalorimeter
READOUT_LABEL: isobaric coefficient of expansion

Sample answers from the record:
- COMPOUND: "CCCCCCn1cc[n+](C)c1.F[B-](F)(F)F [1-hexyl-3-methylimidazolium tetrafluoroborate]"
  OBSERVED: "0.000585 1/K"
- COMPOUND: "CCCCCCCC[n+]1ccn(C)c1.F[B-](F)(F)F [1-methyl-3-octylimidazolium tetrafluoroborate]"
  OBSERVED: "0.000585 1/K"

API: the following record is the query input.
The compound CCn1cc[n+](C)c1.O=S(=O)([N-]S(=O)(=O)C(F)(F)F)C(F)(F)F showed isobaric coefficient of expansion equal to 0.000634 1/K

###

assay: isobaric coefficient of expansion; conditions: 338.15 K; 10000 kPa; Liquid; Microcalorimeter
Listing: isobaric coefficient of expansion of selected compounds

- COMPOUND: "CCCCCCn1cc[n+](C)c1.F[B-](F)(F)F [1-hexyl-3-methylimidazolium tetrafluoroborate]"
  isobaric coefficient of expansion: "0.000584 1/K"

API: the following record is the query input.
The compound CCn1cc[n+](C)c1.O=S(=O)([N-]S(=O)(=O)C(F)(F)F)C(F)(F)F showed isobaric coefficient of expansion equal to 0.000633 1/K

###

Listing: isobaric coefficient of expansion of selected compounds
test: isobaric coefficient of expansion; settings: 338.15 K; 25000 kPa; Liquid; Microcalorimeter

Sample answers from the record:
- COMPOUND: "CCCC[n+]1cccc(C)c1.F[B-](F)(F)F [1-butyl-3-methylpyridinium tetrafluoroborate]"
  isobaric coefficient of expansion: "0.000549 1/K"
- COMPOUND: "CCn1cc[n+](C)c1.F[B-](F)(F)F [1-ethyl-3-methylimidazolium tetrafluoroborate]"
  isobaric coefficient of expansion: "0.000553 1/K"
- COMPOUND: "CCCCCC[n+]1ccn(C)c1.O=S(=O)([N-]S(=O)(=O)C(F)(F)F)C(F)(F)F"
  isobaric coefficient of expansion: "0.000605 1/K"

The compound CCn1cc[n+](C)c1.O=S(=O)([N-]S(=O)(=O)C(F)(F)F)C(F)(F)F showed isobaric coefficient of expansion equal to 0.000604 1/K

The compound CCCCCCn1cc[n+](C)c1.F[B-](F)(F)F [1-hexyl-3-methylimidazolium tetrafluoroborate] showed isobaric coefficient of expansion equal to 0.000558 1/K

The compound CCCCCCCC[n+]1ccn(C)c1.F[B-](F)(F)F [1-methyl-3-octylimidazolium tetrafluoroborate] showed isobaric coefficient of expansion equal to 0.000558 1/K

###

test: isobaric coefficient of expansion; details: 308.15 K; 5000 kPa; Liquid; Microcalorimeter
Listing: isobaric coefficient of expansion of selected molecules

Sample answers from the record:
- MOLECULE: "CCCC[n+]1cccc(C)c1.F[B-](F)(F)F [1-butyl-3-methylpyridinium tetrafluoroborate]"
  READOUT_LABEL: "isobaric coefficient of expansion"
  OBSERVED: "0.000588 1/K"
- MOLECULE: "CCCCCC[n+]1ccn(C)c1.O=S(=O)([N-]S(=O)(=O)C(F)(F)F)C(F)(F)F"
  READOUT_LABEL: "isobaric coefficient of expansion"
  OBSERVED: "0.000659 1/K"
- MOLECULE: "CCCCCCn1cc[n+](C)c1.F[B-](F)(F)F [1-hexyl-3-methylimidazolium tetrafluoroborate]"
  READOUT_LABEL: "isobaric coefficient of expansion"
  OBSERVED: "0.000605 1/K"
- MOLECULE: "CCn1cc[n+](C)c1.F[B-](F)(F)F [1-ethyl-3-methylimidazolium tetrafluoroborate]"
  READOUT_LABEL: "isobaric coefficient of expansion"
  OBSERVED: "0.000597 1/K"
- MOLECULE: "CCn1cc[n+](C)c1.O=S(=O)([N-]S(=O)(=O)C(F)(F)F)C(F)(F)F"
  READOUT_LABEL: "isobaric coefficient of expansion"
  OBSERVED: "0.000656 1/K"

API: the following record is the query input.
The molecule CCCCCCCC[n+]1ccn(C)c1.F[B-](F)(F)F [1-methyl-3-octylimidazolium tetrafluoroborate] showed isobaric coefficient of expansion equal to 0.000605 1/K

###

assay: isobaric coefficient of expansion; details: 318.15 K; 40000 kPa; Liquid; Microcalorimeter
READOUT_LABEL: isobaric coefficient of expansion

Sample answers from the record:
- COMPOUND: "CCCC[n+]1cccc(C)c1.F[B-](F)(F)F [1-butyl-3-methylpyridinium tetrafluoroborate]"
  isobaric coefficient of expansion: "0.000545 1/K"
- COMPOUND: "CCn1cc[n+](C)c1.F[B-](F)(F)F [1-ethyl-3-methylimidazolium tetrafluoroborate]"
  isobaric coefficient of expansion: "0.000544 1/K"
- COMPOUND: "CCCCCCn1cc[n+](C)c1.F[B-](F)(F)F [1-hexyl-3-methylimidazolium tetrafluoroborate]"
  isobaric coefficient of expansion: "0.000545 1/K"
- COMPOUND: "CCCCCCCC[n+]1ccn(C)c1.F[B-](F)(F)F [1-methyl-3-octylimidazolium tetrafluoroborate]"
  isobaric coefficient of expansion: "0.000545 1/K"

The compound CCn1cc[n+](C)c1.O=S(=O)([N-]S(=O)(=O)C(F)(F)F)C(F)(F)F showed isobaric coefficient of expansion equal to 0.00059 1/K

The compound CCCCCC[n+]1ccn(C)c1.O=S(=O)([N-]S(=O)(=O)C(F)(F)F)C(F)(F)F showed isobaric coefficient of expansion equal to 0.000588 1/K

###

assay: isobaric coefficient of expansion; conditions: 348.15 K; 15000 kPa; Liquid; Microcalorimeter
Listing: isobaric coefficient of expansion of selected molecules

- MOLECULE: "CCn1cc[n+](C)c1.F[B-](F)(F)F [1-ethyl-3-methylimidazolium tetrafluoroborate]"
  isobaric coefficient of expansion: "0.000566 1/K"
- MOLECULE: "CCCCCCCC[n+]1ccn(C)c1.F[B-](F)(F)F [1-methyl-3-octylimidazolium tetrafluoroborate]"
  isobaric coefficient of expansion: "0.000572 1/K"
- MOLECULE: "CCCC[n+]1cccc(C)c1.F[B-](F)(F)F [1-butyl-3-methylpyridinium tetrafluoroborate]"
  isobaric coefficient of expansion: "0.000557 1/K"

The molecule CCCCCC[n+]1ccn(C)c1.O=S(=O)([N-]S(=O)(=O)C(F)(F)F)C(F)(F)F showed isobaric coefficient of expansion equal to 0.000623 1/K

The molecule CCn1cc[n+](C)c1.O=S(=O)([N-]S(=O)(=O)C(F)(F)F)C(F)(F)F showed isobaric coefficient of expansion equal to 0.00062 1/K

The molecule CCCCCCn1cc[n+](C)c1.F[B-](F)(F)F [1-hexyl-3-methylimidazolium tetrafluoroborate] showed isobaric coefficient of expansion equal to 0.000572 1/K
